# TGT: BRAF^V600E protein (Homo sapiens, UniProt P15056, V600E)
# Sequence (P15056 whole entry V600E): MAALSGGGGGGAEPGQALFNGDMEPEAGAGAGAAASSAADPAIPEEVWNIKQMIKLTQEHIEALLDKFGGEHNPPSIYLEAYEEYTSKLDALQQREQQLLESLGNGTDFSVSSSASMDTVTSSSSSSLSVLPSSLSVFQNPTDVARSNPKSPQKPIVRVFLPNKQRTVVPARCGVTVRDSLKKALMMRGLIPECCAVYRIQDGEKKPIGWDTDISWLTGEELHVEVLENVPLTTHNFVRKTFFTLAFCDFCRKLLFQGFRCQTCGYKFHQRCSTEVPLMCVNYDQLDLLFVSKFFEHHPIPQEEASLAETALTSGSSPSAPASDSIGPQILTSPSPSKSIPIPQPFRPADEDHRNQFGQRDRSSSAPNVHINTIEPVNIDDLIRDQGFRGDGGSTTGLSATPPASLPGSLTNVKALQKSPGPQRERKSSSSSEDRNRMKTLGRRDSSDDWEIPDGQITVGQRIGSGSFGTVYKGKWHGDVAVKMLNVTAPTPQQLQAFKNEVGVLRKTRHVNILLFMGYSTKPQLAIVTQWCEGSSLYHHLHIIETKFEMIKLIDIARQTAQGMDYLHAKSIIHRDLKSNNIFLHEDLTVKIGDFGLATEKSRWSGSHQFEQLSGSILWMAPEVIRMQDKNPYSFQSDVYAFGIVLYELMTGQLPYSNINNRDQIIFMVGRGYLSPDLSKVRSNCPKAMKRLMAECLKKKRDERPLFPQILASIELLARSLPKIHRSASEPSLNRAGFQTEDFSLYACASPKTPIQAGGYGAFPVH
# METHOD NOTES: HiBiT cellular BRAF V600E degradation assay
# Assay type: cell-based
# CONDITION: A375.10 cells (HiBiT tag knocked in at N-terminal of BRAF V600E), 24 h incubation; concentration at which 50% of total cellular BRAF V600E is degraded
MEASUREMENT TYPE: DC50 (nM)

Query: # returns recorded DC50 (system: BRAF^V600E protein (Homo sapiens, UniProt P15056, V600E)) for CCN(C)S(=O)(=O)Nc1ccc(F)c(C(=O)c2c[nH]c3ncc(-c4cnc(N5CCN(C(=O)CC6CCN(c7ccc8c(C9CCC(=O)NC9=O)nn(C)c8c7)CC6)CC5)nc4)cc23)c1F (stereo not drawn)
Result: 5.38

(1) CCN(C)S(=O)(=O)Nc1ccc(F)c(C(=O)c2c[nH]c3ncc(-c4cnc(N5CCC(NCC(=O)N6CCC(c7ccc(NC8CCC(=O)NC8=O)cn7)CC6)CC5)nc4)cc23)c1F (stereo not drawn)
(2) CCN(C)S(=O)(=O)Nc1ccc(F)c(C(=O)c2c[nH]c3ncc(-c4cnc(N5CCN(C(=O)CC6(O)CCN(c7ccc(NC8CCC(=O)NC8=O)cc7F)CC6)CC5)cn4)cc23)c1F (stereo not drawn)
Query: Higher DC50: 1 or 2 ? Pick one; state its label.
Result: 1
(1: 16 nM, 2: 3.6 nM)
